testDetails: yeast display, Sf9 membrane polyspecificity reagent, FACS + sequencing; frameworks hold sequencing errors
readoutKind: polyreactivity (PSR sort gate)

Here's what some known entries look like.
QVQLVVSGGGLVQAGGSLRLSCAASGSTFFKYVMGWYIQAPGKERELVAAITWRGGRTYYADSVKGRFTISRDNEKNTVYLQMNSLIPEDTAVYYCAAYDQSLYGRRYDYWGQGTQVTVSS | high polyreactivity
QVQLVESGGGLVQAGGSLRLSCAASGRIFKYYGMGWYRQAPGKERELVAAISRGSSTNYADSVKGRFTISRDNAKNTVYLQMNSLKPEDTAVYYCAVSLRRGGSGYAYDYWGQGTQVTVSS | high polyreactivity
QVQLVESGGGLVQAGGSLRLSCAASGSILYVYAMGWYTQAPGKERELVAAISNRDGSTYYADSVKGRFTISRDNAKNTVYLQMNSLKPEDTAVYYCNADGYGDYSFLKYRFEYDYWGQGTQVTVSS | low polyreactivity
QVQLVKSGGGLVQAGGSLRLSCAASGFIIPEYTMGWYRPAPGKERELVAAISGSGGSTYYADSVKGRFTISRDNAKNTVYLQMNSLKPEDTAVYYCAASYAVSRYLQTYAHAHGYWGQGTQVTVSS | low polyreactivity

// switching to the query sequence
stdin: Look at this sequence and give its reported polyreactivity (PSR sort gate). `QVQLVESGAGLVQAGGSLRLSCAASGSSFYFNAMGLYRQAPGKERELVAAIDWSGGSTYYADSVKGRFTISRDNAKNTVYLQMNSLKPEDTAVYYCAAPYHYYGNTVGYADYDYWGQVTQVTVSS`
stdout: low polyreactivity

----------
testDetails: yeast display, Sf9 membrane polyspecificity reagent, FACS + sequencing; frameworks hold sequencing errors
readoutKind: polyreactivity (PSR sort gate)

QVQLVESGGGLVQAGGSLRLSCAASGFIIAQYAMGWYRQAPGKERELVAGITSTGSTNYADSVKGRFTISRDNAKNTVYLQMNSLKPEDTAVYYCNTDYITASAVFDYDYWGQDTQVTVSS | low polyreactivity
QVQLVESGGGLVLAGGSLRLSCAASGFILLYYAMGWYREATGKERELVAAISWTGGRTYYADSVKGRFTISRDNAKNTVYLQMNRLKPEDTAVYYCNTFKFFCRKYGYWGQGTQVTVSS | low polyreactivity

----------
testDetails: yeast display, Sf9 membrane polyspecificity reagent, FACS + sequencing; frameworks hold sequencing errors
readoutKind: polyreactivity (PSR sort gate)

QVQLVESGGGLVQAGGSLRLSCAASGRIFSYNARGWYRQAPGKEWELVAAISSGGSTYYADSVKGRFTISRDNAKKTVYLQMNSLKPEDTAVYYCAADRRYYSDLYYWGQGTQVTVSS | low polyreactivity
QVQLVESGGGLVQAGGSLRLSCAASGRTFHYNAMGWYRQAPGKERELVAAITRSGGSTYYADSVKGRFTISRDNAKNTVYLQMNSLKPEDTAVYYCNAAYLHPGPFDYWGQGTQVTVSS | low polyreactivity

----------
testDetails: yeast display, Sf9 membrane polyspecificity reagent, FACS + sequencing; frameworks hold sequencing errors
readoutKind: polyreactivity (PSR sort gate)

QVQLVESGGGLLQAGGSLRLSCAATGITYDYYDMGWYRQAPGKERELVAAIRWSGTSKYYADSVKGRFTISRDNANNTVYIQMNSLKTEDSAVYYCAALAVGNDYRRYGYWGQGTQVTVSS | high polyreactivity
QVQLVESGGGLVQAGGSLRLSCAASGSILYTNAMGWYRQAPGKERELVAAITTSGASTYYADSVKGRFTISRDNAKNTVYLQMNSLKPEDTAVYDCAAPSRYRYYWGNYWGQGTQVTVSS | high polyreactivity
